Where do the numbers come from? From ChEMBL document CHEMBL1201862.

System: RPMI-8226
Experiment: NCI tumour cell line growth inhibition, 48 h
The source made the active and inactive calls. No stated cut-off is given here; in the data, active = GI50 up to about 1.1 µM and inactive = higher.
For each of the molecules below, state its GI50.

Record for CC(C)C1=CC23CCC4C(C)(C(=O)O)CCCC4(C)C2CC1C1C(=O)N(c2ccc(C(=O)O)cc2)C(=O)C13 (centres undefined) under target or system RPMI-8226: GI50 reported as > 100 µM (inactive)

Record for COC(=O)[C@@H]1C[C@@H](O)CN1C(=O)c1ccc([N+](=O)[O-])cc1[N+](=O)[O-] under target or system RPMI-8226: GI50 reported as > 100 µM (inactive)

Record for CCOC(=O)N/N=C(\CC)NO under target or system RPMI-8226: GI50 reported as > 100 µM (inactive)

Record for N#CC(c1ccccc1)c1cccc2ccccc12 (centres undefined) under target or system RPMI-8226: GI50 reported as 25.7 µM (inactive)

---

Tested on: SK-MEL-5
Assay: NCI tumour cell line growth inhibition, 48 h
Activity calls are given as the source filed them. Rule as the data show it: active = GI50 up to about 1.1 µM and inactive = higher.
Assay Metric: GI50

GET /value?item= Cc1cc2nc(N3C(=O)/C(=C/c4ccc(Oc5ccccc5)cc4)N=C3c3ccccc3)sc2cc1C &field=GI50 returns 30.8 µM (inactive)

GET /value?item= Cn1c([C@H](C#N)C(=O)c2cc(O)ccc2[N+](=O)[O-])nc2ccccc21 &field=GI50 returns > 100 µM (inactive)

GET /value?item= COC(=O)[C@@H]1CN(C(=O)c2ccccc2)C(=O)N1 &field=GI50 returns > 100 µM (inactive)

GET /value?item= O=C(O)c1cc([N+](=O)[O-])cc2c(=O)c3cnccc3[nH]c12 &field=GI50 returns > 100 µM (inactive)

GET /value?item= CC1=NN=C(N)N/C1=C/C(Sc1ccc(Cl)cc1)c1cccs1 (stereo not given) &field=GI50 returns 11.5 µM (inactive)

---

Tested on: SK-MEL-28
Assay: NCI tumour cell line growth inhibition, 48 h
Activity calls are given as the source filed them. No stated cut-off is given here; in the data, active = GI50 up to about 1.1 µM and inactive = higher.
Assay Metric: GI50

GET /value?item= COc1ccc(C(=O)Nc2ccc(S(=O)(=O)NCC(=O)O)cc2)cc1 &field=GI50 returns > 100 µM (inactive)

GET /value?item= O=C(O)C(Cc1ccc(O)c([N+](=O)[O-])c1)N1C(=O)c2ccccc2C1=O (configuration not stated) &field=GI50 returns > 100 µM (inactive)

GET /value?item= C=CCNC(=O)CN(CC(=O)O)C1CCCCC1N(CC(=O)O)CC(=O)O (configuration not stated) &field=GI50 returns > 100 µM (inactive)

GET /value?item= CCOC(=O)C1=C(C)NC(C)=C(C(=O)OCC)C1c1ccc(C)cc1 &field=GI50 returns > 100 µM (inactive)

GET /value?item= N#CC(c1ccccn1)c1nc2ccccc2[nH]1 (configuration not stated) &field=GI50 returns > 100 µM (inactive)

GET /value?item= CCOc1ccc(NC(=O)/C(=N\NC(C)(C)C)C2C(=O)Nc3ccccc3[S+]2[O-])cc1 (configuration not stated) &field=GI50 returns > 100 µM (inactive)

GET /value?item= CC1OC(n2cc(C(F)(F)F)c(=O)[nH]c2=O)C=CC1=O (configuration not stated) &field=GI50 returns 21 µM (inactive)

GET /value?item= c1ccc2sc(SCSc3nc4ccccc4s3)nc2c1 &field=GI50 returns > 100 µM (inactive)

GET /value?item= O=C(/C=C/c1ccc(OCC(=O)N2CCN(c3ccccc3)CC2)cc1)c1ccc(Cl)cc1 &field=GI50 returns > 100 µM (inactive)

GET /value?item= COc1ccc2nc(NCN3C(=O)c4ccccc4C3=O)sc2c1 &field=GI50 returns > 100 µM (inactive)

GET /value?item= O=C(O)CSc1ccc([N+](=O)[O-])cc1[N+](=O)[O-] &field=GI50 returns > 100 µM (inactive)

GET /value?item= CC1=NN(c2cccc(Cl)c2)C(=N/c2nc3ccccc3s2)/C1=C\C=C\c1ccccc1 &field=GI50 returns 29.3 µM (inactive)

GET /value?item= C=CCOC1OC(CS(=O)(=O)O)C(OC(C)=O)C(OC(C)=O)C1OC(C)=O (configuration not stated) &field=GI50 returns > 100 µM (inactive)

GET /value?item= COc1ccc2[nH]c3c4c(c5cc(C(C)(C)C)ccc5c3c2c1)C(=O)N(c1ccccc1)C4=O &field=GI50 returns > 100 µM (inactive)

GET /value?item= Cc1cccc(CNc2[nH]cnc3nncc2-3)c1 &field=GI50 returns > 100 µM (inactive)

GET /value?item= Cc1cc(C[C@H]2O[C@@H]3OC(C)(C)O[C@@H]3[C@H]3OC(C)(C)O[C@H]32)c2ccccc2n1 &field=GI50 returns > 100 µM (inactive)

GET /value?item= C=CC(O)(CBr)CCC(Br)C(=C)C (configuration not stated) &field=GI50 returns > 10 µM (inactive)

GET /value?item= O=C(CSc1nnc(Cc2ccccc2)o1)Nc1cccc([N+](=O)[O-])c1 &field=GI50 returns > 100 µM (inactive)

GET /value?item= O=C1C(Br)=CC2(C=C1Br)CCNC1=C2C(=O)c2cccnc2C1=O &field=GI50 returns 14.2 µM (inactive)

GET /value?item= N#CCC(=O)N/N=C\C(O)C(O)C(O)C(O)CO (configuration not stated) &field=GI50 returns > 100 µM (inactive)

GET /value?item= CCOC(=O)[C-]([N+]#N)[Si](C)(C)C &field=GI50 returns 18.5 µM (inactive)

GET /value?item= O=C(Nn1c(-c2ccccc2)nc2ccccc2c1=O)c1ccccn1 &field=GI50 returns > 100 µM (inactive)

---

Tested on: MCF7
Test: NCI tumour cell line growth inhibition, 48 h
The source made the active and inactive calls. Rule as the data show it: active = GI50 up to about 1.1 µM and inactive = higher.
For each of the compounds below, state its GI50.

GET /value?item= N#CC1=C(N)OC2=C(CSc3ccccc32)C1c1ccc(Br)cc1 (stereo not given) &field=GI50 returns 3.42 µM (inactive)

GET /value?item= CC1=CC(C)C(C)N(CCNS(=O)(=O)c2ccc(C)cc2)c2ccccc21 (stereo not given) &field=GI50 returns 14.2 µM (inactive)

GET /value?item= CC(=O)OC1[C@H](n2ccnc2)C[C@H]2[C@@H]3CC=C4CC(N5CCCC5)CC[C@]4(C)[C@H]3CC[C@]12C (stereo not given in full) &field=GI50 returns 33.9 µM (inactive)

GET /value?item= O=C(O)C(Cc1ccc(O)c([N+](=O)[O-])c1)N1C(=O)c2ccccc2C1=O (stereo not given) &field=GI50 returns > 100 µM (inactive)

GET /value?item= CC1(C)[C@@H](Cn2cnc3c(Cl)nc(N)nc32)CC[C@@]1(C)CO &field=GI50 returns > 100 µM (inactive)

---

Tested on: MDA-MB-435
Experiment: NCI tumour cell line growth inhibition, 48 h
Activity calls are given as the source filed them. No stated cut-off is given here; in the data, active = GI50 up to about 1.1 µM and inactive = higher.
// classify into active, inactive

Qu. Each compound tested received a call. Report the one for Cc1ccc(S(=O)(=O)N2CCc3cc(O)c([N+](=O)[O-])cc32)cc1 .
Ans. inactive

Qu. Each compound tested received a call. Report the one for Cc1ccc(-c2c3c(n(C4OC(CO)C(O)C(O)C4O)c(=S)c2C#N)CC(C)(C)CC3=O)cc1 (stereo not drawn) .
Ans. inactive

Qu. Each compound tested received a call. Report the one for CCOP(=O)(OCC)[C@H]1OC(C)(C)O[C@@H]1CO .
Ans. inactive

Qu. Each compound tested received a call. Report the one for NCCNc1ccc(NCCN)c2c1C(=O)c1c(O)ccc(O)c1C2=O .
Ans. inactive

Qu. Each compound tested received a call. Report the one for O=[N+]([O-])c1ccc(NC(=S)N/N=C(\c2ccccc2)c2ccccn2)cc1 .
Ans. inactive

Qu. Each compound tested received a call. Report the one for O=C(O)c1cc([N+](=O)[O-])cc2c(=O)c3cnccc3[nH]c12 .
Ans. inactive

Qu. Each compound tested received a call. Report the one for CC(=O)c1c(-c2ccc(Cl)cc2)c(C#N)c(=S)n(C2OC(CO)C(O)C(O)C2O)c1-c1ccccc1 (stereo not drawn) .
Ans. inactive

Qu. Each compound tested received a call. Report the one for CCOC(=O)C1=NN(c2ccccc2)C(=O)/C1=C\NC(=S)C(N)=S .
Ans. inactive

Qu. Each compound tested received a call. Report the one for CCN(CC)/[N+]([O-])=N/OCOC .
Ans. inactive

Qu. Each compound tested received a call. Report the one for O=C(/C=C/c1ccc(O)c([N+](=O)[O-])c1)CC(=O)/C=C/c1ccc(O)c([N+](=O)[O-])c1 .
Ans. inactive

Qu. Each compound tested received a call. Report the one for Cc1c(C)n(-c2ccccc2)c2nc(S(C)(=O)=O)nc(S(C)(=O)=O)c12 .
Ans. inactive

Qu. Each compound tested received a call. Report the one for N#CC1(C#N)NC(c2cccs2)C(C#N)(C#N)NC1c1cccs1 (stereo not drawn) .
Ans. inactive

Qu. Each compound tested received a call. Report the one for C[C@]1(O)CC[C@H]2[C@@H]3CCc4cc(O)ccc4[C@H]3CC[C@@]21C .
Ans. active

Qu. Each compound tested received a call. Report the one for Cc1ccc(/C=C2\CNC/C(=C\c3ccc(C)cc3)C2=O)cc1 .
Ans. inactive

Qu. Each compound tested received a call. Report the one for C=CCNC(=O)CN(CC(=O)O)C1CCCCC1N(CC(=O)O)CC(=O)O (stereo not drawn) .
Ans. inactive

Qu. Each compound tested received a call. Report the one for O=C1C(Br)=CC2(C=C1Br)CCNC1=C2C(=O)c2cccnc2C1=O .
Ans. inactive

Qu. Each compound tested received a call. Report the one for CCCCC/C(=N\c1[nH]nnc1C(N)=O)OCC .
Ans. inactive

Qu. Each compound tested received a call. Report the one for O=C1Nc2ccc(Br)cc2C1=Nc1cccnc1 .
Ans. inactive

Qu. Each compound tested received a call. Report the one for COc1ccc(OC)c(C23CCCC(C2)N(C)CC3)c1 (stereo not drawn) .
Ans. inactive

Qu. Each compound tested received a call. Report the one for CN1CC[C@@]2(c3cccc(O)c3)CC(=O)/C(=C/c3ccccc3)[C@H]1C2.[O-][Cl+3]([O-])([O-])O .
Ans. inactive

Qu. Each compound tested received a call. Report the one for c1ccc2sc(SCSc3nc4ccccc4s3)nc2c1 .
Ans. inactive

Qu. Each compound tested received a call. Report the one for O=C1c2ccccc2-n2c1nc1ccc([N+](=O)[O-])cc1c2=O .
Ans. inactive

Qu. Each compound tested received a call. Report the one for Cc1ccc(S(=O)(=O)N2CCN(CCO)CCN(S(=O)(=O)c3ccc(C)cc3)CCN(CCO)CC2)cc1 .
Ans. inactive
